- Tested on: MS2 coat protein
- assayMethodText: apparent KD of MS2 coat protein; designed switch direction (-1 OFF switch, 1 ON switch): -1; higher = weaker reporter binding
- conditionDetails: input ligand: none

# polymerSequence, measureUnit, apparent KD of MS2 coat protein
data = [
    ("UUUAAACAUGAGGAUCACCCAUGUUAGGAUAUACGCAUGCAGACACGCACGGAUGCAAGUAGAAGGAACCAUGC [Design #6] (Eterna round: R97, puzzle: Exclusion 1)", "nM", 31.3),
    ("UACACUCAGCAGGAUAUGCAACAAAAUUAAAACGCAGAAGGGUUGACAUGAGGAUCACCCAUGUAACUCAUGCA [EX6 A.1] (Eterna round: R97, puzzle: Exclusion 6)", "nM", 15.7),
    ("UCUACGUCAGGAUAUACAAGCGGUGCUCUGAUGCUGUCCAGACAUGAGGAUCACCCAUGUAGAAGGGACGACAA [Eternabot (L1) Solution 68] (Eterna round: R97, puzzle: Exclusion 2)", "nM", 365),
    ("GCUUCGUCUGUGGGUGGUGACAUGAGGAUCACCCAUGUUUUGCUCGUCUUGUGCCGGGCCCGGCGCCCGGGCCCGGC [-38.7, -63.8, A 8%] (Eterna round: R97, puzzle: Sensor, turn-off variant 1)", "nM", 955),
    ("GUCCUGGAAUAUCAGUCGCACAUGAGGAUCACCCAUGUCAUGGGUAGAUCAAUAAAUAAAGAUACUGCUCGUCUUAU [Cac sensor turnoff var1 sub3] (Eterna round: R97, puzzle: Sensor, turn-off variant 1)", "nM", 409),
    ("AAGGUACAUGAGGAUCACCCAUGUGAGGAUAUCGUUGUUGAGUCUAGAGAUACAAUGUUGAGAAGGUACGGGUA [Eternabot (L2) Solution 94] (Eterna round: R97, puzzle: Exclusion 1)", "nM", 61.2),
    ("ACAUGAGGAUCACCCAUGUAAUCAUAAUGGCUGAUGUAGAGUCAGGAUAUGUGUGGCUUUCUAUCGCAGAAGGGACAAGACUGG [Deportation 34 - Jieux - Exclusion NG 3] (Eterna round: R96, puzzle: Exclusion NG 3)", "nM", 30.7),
    ("GCUGGUCGAGGAUAUGCAUACACUGGAUACAGUGGAAGGUCACAUGAGGAUCACCCAUGUAGAAGGCGACCAGC [EX2 #35] (Eterna round: R97, puzzle: Exclusion 2)", "nM", 35.1),
    ("CCGCUCCGUGUAGGAUAUCGGCGUGCCCUGCGCCGAGAAGGACAUGAGGAUCACCCAUGUAUGUUAUUAUCACGCGUGGCGCAC [Design 75] (Eterna round: R96, puzzle: Exclusion NG 1)", "nM", 19.9),
]
